Values compiled from ChEMBL document CHEMBL1130218.

- Tested Target: Cannabinoid receptor 1 (Mus musculus, UniProt P47746)
- Sequence (P47746 whole entry): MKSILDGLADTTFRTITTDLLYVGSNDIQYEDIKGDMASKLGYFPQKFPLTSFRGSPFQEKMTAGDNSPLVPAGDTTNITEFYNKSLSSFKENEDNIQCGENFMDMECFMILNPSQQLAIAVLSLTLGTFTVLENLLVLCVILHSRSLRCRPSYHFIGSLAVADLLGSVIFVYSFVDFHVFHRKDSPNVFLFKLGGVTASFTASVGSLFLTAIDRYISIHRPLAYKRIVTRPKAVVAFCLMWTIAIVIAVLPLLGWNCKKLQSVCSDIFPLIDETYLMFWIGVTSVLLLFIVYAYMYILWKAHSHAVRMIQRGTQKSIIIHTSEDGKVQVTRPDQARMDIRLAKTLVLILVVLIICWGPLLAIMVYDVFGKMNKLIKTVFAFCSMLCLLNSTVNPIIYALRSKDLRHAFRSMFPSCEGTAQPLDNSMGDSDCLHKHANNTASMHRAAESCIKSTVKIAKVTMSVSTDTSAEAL
- Protocol Notes: Binding affinity for Cannabinoid receptor 1 in absence of phenylmethylsulfonyl fluoride (PMSF)
Measurement Type: Ki (nM)
Kindly provide the numeric value in nM only, without the unit symbol.

Here's what some known entries look like.
In [3]: df
Out[3]:
                                   compound                             tested_target  measurement_type  unit_descriptor  observed_measurement
0  CCCCCC(C)(C)C/C=C\C/C=C\C/C=C\C/C=C\CCCC(=O)NCCO  Cannabinoid receptor 1 (Mus musculus, UniProt P47746)                Ki               nM                    39
1  CCCCCCCCC/C=C\C/C=C\C/C=C\C/C=C\CCCC(=O)NCCO  Cannabinoid receptor 1 (Mus musculus, UniProt P47746)                Ki               nM                    79
2  CCCCCC(C)C/C=C\C/C=C\C/C=C\C/C=C\CCCC(=O)NCCO (stereo not drawn)  Cannabinoid receptor 1 (Mus musculus, UniProt P47746)                Ki               nM                    51
3  CCCCCCC/C=C\C/C=C\C/C=C\C/C=C\CCCC(=O)NCCO  Cannabinoid receptor 1 (Mus musculus, UniProt P47746)                Ki               nM                  1780
4  CCCCC/C=C\C/C=C\C/C=C\C/C=C\CCC(C)C(=O)NCCF (stereo not drawn)  Cannabinoid receptor 1 (Mus musculus, UniProt P47746)                Ki               nM                    15
5  CCCCCCCC/C=C\C/C=C\C/C=C\C/C=C\CCCC(=O)NCCO  Cannabinoid receptor 1 (Mus musculus, UniProt P47746)                Ki               nM                   156

Request: Look up Ki of CCCCCC/C=C\C/C=C\C/C=C\C/C=C\CCCC(=O)NCCO and report it.
Response: 3060

Request: Look up Ki of CCCCC(C)(C)C/C=C\C/C=C\C/C=C\C/C=C\CCCC(=O)NCCO and report it.
Response: 382

====

// Ki lookup, one value per entry
- Tested Target: Cannabinoid receptor 1 (Mus musculus)
- Protocol Notes: Binding affinity for Cannabinoid receptor 1 in presence of phenylmethylsulfonyl fluoride (PMSF)
Kindly provide the numeric value in nM only, without the unit symbol.

>>> df
                                   molecule  observed_measurement
0  CCCCCC(C)(C)C/C=C\C/C=C\C/C=C\C/C=C\CCC(C)C(=O)NCCF (stereo not given)                   7.7
1  CCCCC(C)(C)C/C=C\C/C=C\C/C=C\C/C=C\CCCC(=O)NCCO                    48
2  CCCCC/C=C\C/C=C\C/C=C\C/C=C\CCC(C)C(=O)NCCF (stereo not given)                   5.7
3  CCCCCCC(C)(C)/C=C\C/C=C\C/C=C\C/C=C\CCC(C)C(=O)NCCF (stereo not given)                     1
4  CCCCCCC(C)(C)/C=C\C/C=C\C/C=C\C/C=C\CCCC(=O)NCCO                     7
5  CCCCCC(C)(C)C/C=C\C/C=C\C/C=C\C/C=C\CCCC(=O)NCCO                    19
6  CCCCCCCC/C=C\C/C=C\C/C=C\C/C=C\CCCC(=O)NCCO                    18
7  CCCCCCC(C)/C=C\C/C=C\C/C=C\C/C=C\CCC(C)C(=O)NCCF (stereo not given)                   4.8
8  CCCCCC(C)C/C=C\C/C=C\C/C=C\C/C=C\CCCC(=O)NCCO (stereo not given)                    11
9  CCCCCCC/C=C\C/C=C\C/C=C\C/C=C\CCCC(=O)NCCO                    55

Request: Look up Ki of CCCCCCCC(C)(C)/C=C\C/C=C\C/C=C\C/C=C\CCC(C)C(=O)NCCF (stereo not given) and report it.
Response: 14

Request: Look up Ki of CCCCCC/C=C\C/C=C\C/C=C\C/C=C\CCCC(=O)NCCO and report it.
Response: 24

Request: Look up Ki of CCCCCCCC/C=C\C/C=C\C/C=C\C/C=C\CCC(C)C(=O)NCCF (stereo not given) and report it.
Response: 8.2

Request: Look up Ki of CCCCCCCCC/C=C\C/C=C\C/C=C\C/C=C\CCCC(=O)NCCO and report it.
Response: 25

Request: Look up Ki of CCCCCC(C)C/C=C\C/C=C\C/C=C\C/C=C\CCC(C)C(=O)NCCF (stereo not given) and report it.
Response: 3.3
